Data origin, for the record: patent US8338465B2

Listed here: items and their measured IC50.
biological target: dihydrolipoamide acyltransferase (DlaT) (Mycobacterium tuberculosis, UniProt P9WIS7); assay: DlaT inhibition (Dlat IC50); DTNB peroxidase assay with Lpd, DlaT and AhpD; assay type: biochemical; conditions: Dlat IC50 category
Sequence (P9WIS7 whole entry): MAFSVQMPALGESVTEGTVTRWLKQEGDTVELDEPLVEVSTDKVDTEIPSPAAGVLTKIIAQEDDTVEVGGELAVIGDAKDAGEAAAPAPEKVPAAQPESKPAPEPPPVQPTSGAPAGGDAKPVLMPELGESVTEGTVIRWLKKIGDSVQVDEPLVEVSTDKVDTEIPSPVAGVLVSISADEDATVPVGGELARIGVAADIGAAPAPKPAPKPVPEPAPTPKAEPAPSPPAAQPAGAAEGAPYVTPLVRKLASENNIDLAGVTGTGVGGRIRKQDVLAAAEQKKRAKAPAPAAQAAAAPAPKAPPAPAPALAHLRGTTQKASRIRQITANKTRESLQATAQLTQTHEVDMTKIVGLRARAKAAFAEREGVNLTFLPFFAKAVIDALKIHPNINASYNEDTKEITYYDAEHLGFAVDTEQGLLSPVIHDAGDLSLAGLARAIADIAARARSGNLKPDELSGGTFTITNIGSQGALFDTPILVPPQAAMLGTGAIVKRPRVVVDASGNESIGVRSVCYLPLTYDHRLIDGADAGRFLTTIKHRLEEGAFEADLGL

Here's what some known entries look like.
Need IC50 of O=C(O)CCN1C(=O)C(=Cc2ccc(-c3cccc(C(F)(F)F)c3)o2)SC1=S , thanks. < 10 µM

Need IC50 of CC(C)C(C(=O)O)N1C(=O)C(=Cc2ccc(-c3ccc(Cl)c(Cl)c3)o2)SC1=S (stereo not drawn) , thanks. < 10 µM

Please examine the following record next.
Need IC50 of COc1ccc(-c2ccc(C=C3SC(=S)N(C4CCCC(C(=O)O)C4)C3=O)o2)c(OC)c1 (stereo not drawn) , thanks. < 10 µM

###

target: UniProt:P9WIS7; test: DlaT inhibition (Dlat IC50); DTNB peroxidase assay with Lpd, DlaT and AhpD; type: biochemical; conditions: Table 1, Compounds A1 to A294; read-out: Dlat IC50 category
pIC50: −log10 of the molar value.
Listed here: items and their measured pIC50.

Here's what some known entries look like.
Need pIC50 of Cc1cc(Cl)ccc1-c1ccc(C=C2SC(=S)N(c3cc(C(=O)O)ccc3F)C2=O)o1 [Compound A170] , thanks. > 5.00

Need pIC50 of NS(=O)(=O)c1ccc(N2C(=O)C(=Cc3ccc(-c4cccc(C(F)(F)F)c4)o3)SC2=S)cc1 [Compound A18] , thanks. 4.40 to 4.96

Need pIC50 of CC(=O)NS(=O)(=O)c1ccc(N2C(=O)C(=Cc3ccc(-c4ccc(Cl)c(Cl)c4)o3)SC2=S)cc1 [Compound A30] , thanks. > 5.00

---
Need pIC50 of O=C(O)c1ccc(Cl)c(N2C(=O)C(=Cc3ccc(-c4ccc(Cl)c(Cl)c4)o3)SC2=S)c1 [Compound A107] , thanks. > 5.00

###

biological target: dihydrolipoamide acyltransferase (DlaT) (Mycobacterium tuberculosis, UniProt P9WIS7); assay: DlaT inhibition (Dlat IC50); DTNB peroxidase assay with Lpd, DlaT and AhpD; type: biochemical; conditions: Table 1, Compounds A1 to A294; read-out: Dlat IC50 category
REPORTED PROPERTY: IC50

Need IC50 of CC(C)(c1ccccc1)c1ccc(-c2ccc(C=C3SC(=S)N(c4cccc(C(=O)O)c4)C3=O)o2)cc1 [Compound A95] , thanks. < 10 µM

Need IC50 of O=C(O)COc1ccc(N2C(=O)C(=Cc3ccc(-c4ccc(Cl)cc4)o3)SC2=S)cc1 [Compound A45] , thanks. 11 to 40 µM

Need IC50 of Cc1ccccc1-c1ccc(C=C2SC(=S)N(c3cccc(C(=O)O)c3)C2=O)o1 [Compound A134] , thanks. 11 to 40 µM

Please examine the following record next.
Need IC50 of COc1ccc(C(=O)O)cc1N1C(=O)C(=Cc2ccc(-c3ccc(CC(C)C)cc3)o2)SC1=S [Compound A91] , thanks. < 10 µM

###

target: dihydrolipoamide acyltransferase (DlaT) (Mycobacterium tuberculosis, UniProt P9WIS7); assay: DlaT inhibition (Dlat IC50); DTNB peroxidase assay with Lpd, DlaT and AhpD; assay type: biochemical; settings: Table 1, Compounds A1 to A294; read-out: Dlat IC50 category
REPORTED PROPERTY: IC50

Need IC50 of Cc1ccc(C(=O)O)cc1N1C(=O)C(=Cc2ccc(-c3ccc(C(C)(C)c4ccccc4)cc3)o2)SC1=S [Compound A102] , thanks. < 10 µM

Need IC50 of Cc1c(C(=O)O)cccc1N1C(=O)C(=Cc2ccc(-c3ccc(C(C)(C)C)cc3)o2)SC1=S [Compound A81] , thanks. < 10 µM

Need IC50 of CCOc1ccc(-c2ccc(C=C3SC(=S)N(c4cccc(C(=O)O)c4)C3=O)o2)cc1 [Compound A217] , thanks. 11 to 40 µM

Need IC50 of O=C(O)c1cccc(N2C(=O)C(=Cc3ccc(-c4cccc(CO)c4)o3)SC2=S)c1 [Compound A209] , thanks. < 10 µM

Need IC50 of O=C(O)c1cccc(N2C(=O)C(=Cc3ccc(-c4ccc([N+](=O)[O-])cc4)o3)SC2=S)c1 [Compound A130] , thanks. 11 to 40 µM

Need IC50 of O=C1C(=Cc2ccc(-c3ccc(Cl)cc3)o2)SC(=S)N1c1cccc(O)c1 [Compound A51] , thanks. 11 to 40 µM

Please examine the following record next.
Need IC50 of Cc1cc(F)ccc1-c1ccc(C=C2SC(=S)N(c3cccc(C(=O)O)c3)C2=O)o1 [Compound A148] , thanks. < 10 µM
